TARGET DESC: hCB1R (Homo sapiens, UniProt P21554)
Sequence (P21554 whole entry): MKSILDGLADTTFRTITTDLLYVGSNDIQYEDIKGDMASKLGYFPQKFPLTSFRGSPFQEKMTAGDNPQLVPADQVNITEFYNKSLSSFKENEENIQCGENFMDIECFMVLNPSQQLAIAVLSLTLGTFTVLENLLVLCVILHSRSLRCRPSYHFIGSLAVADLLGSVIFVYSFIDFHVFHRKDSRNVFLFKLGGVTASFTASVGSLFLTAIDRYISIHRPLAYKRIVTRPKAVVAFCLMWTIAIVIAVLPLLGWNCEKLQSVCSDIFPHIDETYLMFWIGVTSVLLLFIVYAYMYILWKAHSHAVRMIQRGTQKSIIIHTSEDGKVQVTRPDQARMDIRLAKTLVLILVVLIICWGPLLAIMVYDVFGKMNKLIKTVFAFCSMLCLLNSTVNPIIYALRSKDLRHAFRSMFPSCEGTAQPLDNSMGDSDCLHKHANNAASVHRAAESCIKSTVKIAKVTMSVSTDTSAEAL
ASSAY EXPLANATION: cell-based
Assay type: cell-based
CONDITION DETAILS: compound alone; 10 µM forskolin, 90 min; value with 95% CI; read-out: cAMP inhibition EC50
pEC50: −log10 of the molar value.
RECORDED ENDPOINT: pEC50

CCCCCc1cc(O)cc(O)c1
< 5.00
COc1cc(/C=C/C(=O)CC(=O)/C=C/c2ccc(O)c(OC)c2)ccc1O
< 5.00
O=C(O[C@@H]1Cc2c(O)cc(O)cc2O[C@@H]1c1cc(O)c(O)c(O)c1)c1cc(O)c(O)c(O)c1 [Egc G, epigallocatechin gallate]
< 5.00

----------
Reported EC50 is given for each of the following molecules.
TARGET DESC: hCB1R (Homo sapiens)
ASSAY EXPLANATION: cell-based
Format: cell-based
RECORDED ENDPOINT: EC50

CCCCCc1cc(O)c2c(c1)OC(C)(C)c1ccc(C)cc1-2 [CBN, cannabinol]
> 10 µM
CCCCCc1cc(O)c2c(c1)OC(C)(C)[C@@H]1CCC(CO)=C[C@@H]21 [11-OH-∆^9-THC]
> 10 µM
O=C(/C=C/C=C/c1ccc2c(c1)OCO2)N1CCCCC1 [Piperine, piperine]
> 10 µM

----------
TARGET DESC: hCB1R (Homo sapiens, UniProt P21554)
ASSAY EXPLANATION: biochemical
Format: binding
RECORDED ENDPOINT: [3H]CP55,940 Emin (%)

CCCCCCC(C)(C)c1ccc(C2CC(O)CCC2CCCO)c(O)c1 (stereo not drawn) [CP55,940, reference compound]
1.0
O=C(O[C@@H]1Cc2c(O)cc(O)cc2O[C@@H]1c1cc(O)c(O)c(O)c1)c1cc(O)c(O)c(O)c1 [Egc G, epigallocatechin gallate]
95
CCCCCCCCCCCCCCCC(=O)NCCO [PEA, palmitoylethanolamide]
46
CCCCCc1cc(O)c2c(c1)OC(C)(C)[C@@H]1CCC(CO)=C[C@@H]21 [11-OH-∆^9-THC]
70
CCCCCc1cc(O)cc(O)c1 [Olivetol, olivetol]
57
COc1cc(/C=C/C(=O)CC(=O)/C=C/c2ccc(O)c(OC)c2)ccc1O [Curcumin, curcumin]
100
O=C(/C=C/C=C/c1ccc2c(c1)OCO2)N1CCCCC1 [Piperine, piperine]
37
CCCCCc1cc(O)c2c(c1)OC(C)(C)[C@@H]1CC=C(C)C[C@@H]21 [∆^8-THC]
30
CCCCCc1cc(O)c2c(c1)OC(C)(C)c1ccc(C)cc1-2 [CBN, cannabinol]
71

----------
TARGET DESC: hCB1R (Homo sapiens, UniProt P21554)
ASSAY EXPLANATION: cell-based
Assay type: cell-based
CONDITION DETAILS: CHO-K1, read-out: βarrestin2 recruitment Emax
Response field label takes YES when Emax is strictly below 50% and NO in all other cases.

CCCCCc1cc(O)c2c(c1)OC(C)(C)c1ccc(C)cc1-2
YES
CCCCCc1cc(O)c2c(c1)OC(C)(C)[C@@H]1CC=C(C)C[C@@H]21
YES
CCCCCCCCCCCCCCCC(=O)NCCO [PEA, palmitoylethanolamide]
YES
CCCCCCC(C)(C)c1ccc(C2CC(O)CCC2CCCO)c(O)c1 (centres unmarked) [CP55,940, reference compound]
NO
CCCCCc1cc(O)c2c(c1)OC(C)(C)[C@@H]1CCC(CO)=C[C@@H]21
YES

----------
Reported EC50 is given for each of the following molecules.
TARGET DESC: hCB1R (Homo sapiens, UniProt P21554)
ASSAY EXPLANATION: cell-based
Type: cell-based
RECORDED ENDPOINT: EC50 (nM)

CCCCCc1cc(O)c2c(c1)OC(C)(C)[C@@H]1CCC(CO)=C[C@@H]21
11
CCCCCc1cc(O)c2c(c1)OC(C)(C)c1ccc(C)cc1-2
49

----------
TARGET DESC: UniProtKB P21554
ASSAY EXPLANATION: cell-based
Type: cell-based
CONDITION DETAILS: CHO-K1; read-out: cAMP inhibition Emax
RECORDED ENDPOINT: Emax (%)

O=C(O[C@@H]1Cc2c(O)cc(O)cc2O[C@@H]1c1cc(O)c(O)c(O)c1)c1cc(O)c(O)c(O)c1 [Egc G, epigallocatechin gallate]
5.6
CCCCCc1cc(O)cc(O)c1
5.6
COc1cc(/C=C/C(=O)CC(=O)/C=C/c2ccc(O)c(OC)c2)ccc1O
6.2
O=C(/C=C/C=C/c1ccc2c(c1)OCO2)N1CCCCC1
5.5

----------
TARGET DESC: hCB1R (Homo sapiens, UniProt P21554)
ASSAY EXPLANATION: cell-based
Type: cell-based
CONDITION DETAILS: CHO-K1, read-out: cAMP inhibition Emax
RECORDED ENDPOINT: Emax (%)

CCCCCc1cc(O)c2c(c1)OC(C)(C)c1ccc(C)cc1-2 [CBN, cannabinol]
64
CCCCCc1cc(O)c2c(c1)OC(C)(C)[C@@H]1CCC(CO)=C[C@@H]21 [11-OH-∆^9-THC]
28
CCCCCCC(C)(C)c1ccc(C2CC(O)CCC2CCCO)c(O)c1 (centres unmarked) [CP55,940, reference compound]
100
CCCCCc1cc(O)c2c(c1)OC(C)(C)[C@@H]1CC=C(C)C[C@@H]21 [∆^8-THC]
56
CCCCCCCCCCCCCCCC(=O)NCCO [PEA, palmitoylethanolamide]
26

----------
TARGET DESC: hCB1R (Homo sapiens, UniProt P21554)
ASSAY EXPLANATION: cell-based
Assay type: cell-based
CONDITION DETAILS: compound alone; 90 min; value with 95% CI; read-out: βarrestin2 recruitment EC50
pEC50: −log10 of the molar value.
RECORDED ENDPOINT: pEC50

CCCCCc1cc(O)cc(O)c1
< 5.00
O=C(O[C@@H]1Cc2c(O)cc(O)cc2O[C@@H]1c1cc(O)c(O)c(O)c1)c1cc(O)c(O)c(O)c1 [Egc G, epigallocatechin gallate]
< 5.00
COc1cc(/C=C/C(=O)CC(=O)/C=C/c2ccc(O)c(OC)c2)ccc1O
< 5.00

----------
The reader will find pKi measurements below, all made with hCB1R (Homo sapiens, UniProt P21554).
pKi: −log10 of the molar value.
RECORDED ENDPOINT: pKi

CCCCCc1cc(O)c2c(c1)OC(C)(C)c1ccc(C)cc1-2
6.85
COc1cc(/C=C/C(=O)CC(=O)/C=C/c2ccc(O)c(OC)c2)ccc1O
< 5.00
CCCCCc1cc(O)cc(O)c1
7.77
O=C(/C=C/C=C/c1ccc2c(c1)OCO2)N1CCCCC1
< 5.00
CCCCCCCCCCCCCCCC(=O)NCCO [PEA, palmitoylethanolamide]
< 5.00
O=C(O[C@@H]1Cc2c(O)cc(O)cc2O[C@@H]1c1cc(O)c(O)c(O)c1)c1cc(O)c(O)c(O)c1 [Egc G, epigallocatechin gallate]
< 5.00
